Measured target: DprE1 (MSMEG_6382) (Mycolicibacterium smegmatis, UniProt A0R607)
Construct: recombinant DprE1 expressed as N-terminal six-histidine and thioredoxin fusion (pET-32b), digested with PreScission Protease
Protocol description: steady-state fluorescence titration (enzyme-bound FAD fluorescence)
This listing pairs compounds with measured pKd.
Reminder that pKd is minus the log10 of a molar concentration.

COc1ccc(OCCNC(=O)c2cc([N+](=O)[O-])cc([N+](=O)[O-])c2)cc1 [DNB1]	5.14

Inquiry: So what does the record say about pKd for O=C(NCCOCc1cccc(Cl)c1)c1cc([N+](=O)[O-])cc([N+](=O)[O-])c1 [DNB3] ?
Reply text: 5.74

Cited source for all entries: paper PMC3206020
